Origin of values: ChEMBL document CHEMBL5058577

Below, each entry is listed with its recorded Population Normal (%).
- Tested on: U2OS
- assay.info: Multiplex assay against U2OS
- Type: toxicity, cell-based
- conditions.used: human, 24 h, 1 µM, compound concentration 1 uM, replicate 1

compound: C=CCN1C[C@H](C(=O)N(CCCN(C)C)C(=O)NCC)C[C@@H]2c3cccc4[nH]cc(c34)C[C@H]21
Population Normal (%): 96

compound: CN1CCN(c2ccc(Nc3c4ccccc4nc4ccccc34)cc2)CC1.Cl.Cl.O
Population Normal (%): 98

compound: S=C(NCCCc1c[nH]cn1)NCCCN(Cc1ccc(Cl)c(Cl)c1)c1ccc(Br)cn1
Population Normal (%): 96

compound: Cl.Cl.OCCOCCN1CCN(C(c2ccccc2)c2ccc(Cl)cc2)CC1 (stereo not drawn) [HYDROXYZINE HYDROCHLORIDE]
Population Normal (%): 98

compound: Cc1ccc(OCC(O)C(C)NC(C)C)c2c1CCC2.Cl (stereo not drawn)
Population Normal (%): 100

compound: COCCCN1CCC(NC(=O)c2cc(Cl)c(N)c3c2OCC3)CC1 [PRUCALOPRIDE]
Population Normal (%): 97

compound: Nc1nc(-c2ccco2)c2cnn(Cc3ccccc3F)c2n1
Population Normal (%): 98

compound: CCCCCCNC(=O)Nc1ccc(S(=O)(=O)Nc2ccc(CCNC[C@H](O)COc3ccc(O)cc3)cc2)cc1
Population Normal (%): 95
